The measured values listed here are drawn from patent US4510139A.

Collected inhibition at 1 µM values appear next to each entry.
ASSAY SYSTEM: lipoxygenase (Rattus norvegicus, UniProt P12527)
Construct: microsomal fraction containing lipoxygenase and cyclooxygenase; endogenous in cells; host or cells: RBL-1 (rat basophilic leukemia) cells, homogenate / microsomal fraction
Sequence (P12527 1-673): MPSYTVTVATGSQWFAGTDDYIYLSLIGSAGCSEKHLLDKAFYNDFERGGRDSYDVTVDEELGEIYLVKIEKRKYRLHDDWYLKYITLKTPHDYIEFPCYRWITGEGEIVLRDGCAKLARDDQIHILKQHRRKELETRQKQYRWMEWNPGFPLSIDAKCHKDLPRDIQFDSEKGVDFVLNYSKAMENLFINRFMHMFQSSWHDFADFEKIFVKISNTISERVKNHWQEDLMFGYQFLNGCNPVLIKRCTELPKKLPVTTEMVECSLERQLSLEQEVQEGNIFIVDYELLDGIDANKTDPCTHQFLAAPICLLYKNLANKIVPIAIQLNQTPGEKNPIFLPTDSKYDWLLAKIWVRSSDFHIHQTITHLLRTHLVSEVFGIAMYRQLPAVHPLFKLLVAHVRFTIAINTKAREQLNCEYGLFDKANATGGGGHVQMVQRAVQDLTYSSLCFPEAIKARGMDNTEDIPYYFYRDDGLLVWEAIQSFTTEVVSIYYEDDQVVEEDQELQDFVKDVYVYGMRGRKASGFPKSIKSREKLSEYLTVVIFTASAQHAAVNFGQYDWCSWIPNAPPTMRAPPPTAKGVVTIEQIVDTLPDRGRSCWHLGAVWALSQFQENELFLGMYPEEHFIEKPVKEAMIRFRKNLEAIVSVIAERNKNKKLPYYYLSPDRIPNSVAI
ASSAY NAME: Inhibition of lipoxygenase derived from rat basophilic leukemia (RBL-1) cells, products L1 (5,12-di-HETE) and L2 (5-HETE)
Assay type: biochemical
STUDY CONDITIONS: read-out: % Inhibition of lipoxygenase (L1) formation
Procedure: The primary screening test used is a determination of the inhibition of lipoxygenase and cyclooxygenase derived from rat basophilic leukemia (RBL-1) cells. The test was carried out according to the following procedure: Single cell suspensions of RBL-1 cells are homogenized to obtain the microsomal fraction containing lipoxygenase and cyclooxygenase. […] The peak areas of radioactivity representing the products are located by scanning the plates. […]
MEASUREMENT NAME: inhibition at 1 µM (%)

1) O=C(c1ccccc1Nc1ccccc1O)N1CCCCC1 = 58
2) COc1ccc(Nc2ccc(O)cc2)c(C(=O)N2CCCCC2)c1 = 89
3) O=C(NCc1ccccc1)c1ccccc1Nc1ccc(O)cc1 = 87
4) CCCN(CC)C(=O)c1ccccc1Nc1ccc(O)cc1 = 78
5) NC(=O)c1ccccc1Nc1ccc(O)cc1 [Example 3(b), 2-(4-Hydroxyphenylamino)benzamide] = 78
